experiment: chemical genetic growth profiling, strain panel (AID 1159580);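 further: tested at 20 µM; growth read once vehicle control cultures reached saturation at 30 °C; 1 = growth at the plate median or of vehicle wells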; details: S. cerevisiae deletion strains, growth OD, locus YHR087W, strain rtc3, hits give low values
Screen size: about 5,500 compounds; about 2,000 (36%) were called active. Not shown: some 18% with an inconclusive outcome. This is one part of the list.
OBSERVABLE: normalized growth
Would you mind answering with just the numeric figure?

# count of solved cases: 6
- COMPOUND: "N#CC(C#N)=CNc1cc(C(F)(F)F)ccc1N1CCCCC1"
  normalized growth: 1.01
- COMPOUND: "N#C/C(=N/Nc1ccc(C(F)(F)F)cc1)C(=O)C1CC1"
  normalized growth: 0.951
- COMPOUND: "Cc1c(-n2cccc2)cc2c(c1[N+](=O)[O-])C(C)(C)CC2(C)C"
  normalized growth: 1.01
- COMPOUND: "c1ccc2c(c1)-c1cccc3cccc-2c13"
  normalized growth: 0.826
- COMPOUND: "COc1ccc(/C=N\\NC(=O)CC#N)cc1OC"
  normalized growth: 0.996
- COMPOUND: "O=S(=O)(O)c1cccc2cccc(Cl)c12"
  normalized growth: 1.06

Could you now look at the following compound, please?
Q. Fill in reported normalized growth for this entry: COc1cccc(NC(=S)NCc2ccco2)c1
A. 0.977

----------
experiment: chemical genetic growth profiling, strain panel (AID 1159580); conditions: S. cerevisiae deletion strains, growth OD, locus YKL009W, strain mrt4, hits give low values
Out of some 5,500 compounds screened, about 2,000 (36%) were called active. Inconclusive results (about 18%) are left out. This is one part of the list.
Below, each entry is listed with its recorded normalized growth.

- COMPOUND: "N#C/C(=C\\c1ccc(O)cc1)C(=O)O"
  RESULT: "0.963 (inactive)"
- COMPOUND: "O=c1[nH]c2ccccc2n1C1CCN(CCCC(c2ccc(F)cc2)c2ccc(F)cc2)CC1"
  RESULT: "0.963 (inactive)"
- COMPOUND: "CC1(C)C[C@@H]2C(=O)CC[C@H]3O[C@]3(C)CC[C@H]21"
  RESULT: "0.985 (inactive)"
- COMPOUND: "O=C(CCCN1CC=C(n2c(=O)[nH]c3ccccc32)CC1)c1ccc(F)cc1"
  RESULT: "0.939 (inactive)"

Now look at this entry.
Q. Identify normalized growth associated with the compound CCCC(=O)Nc1ncnc2c1ncn2C1O[C@@H]2COP(=O)(O)O[C@H]2[C@H]1OC(=O)CCC (stereo not given in full)
A. 1.01 (inactive)

----------
test: chemical genetic growth profiling, strain panel (AID 1159580); conditions: S. cerevisiae deletion strains, growth OD, locus YJR066W, strain TOR1
Hit rate of the full screen: of about 5,500 compounds, about 2,000 (36%) were called active. Roughly 18% stayed inconclusive and do not appear here. No stated cut-off is given here; in the data, active means normalized growth mostly below about 0.91 (no sharp cut-off); inconclusive means no clear call, values can overlap the other calls; inactive means mostly above about 0.92. The list shows a part of the results.
Please reply with one of these outcomes: yes (1) for active, no (0) for inactive

Reference set (8 entries):
- COMPOUND: "Cc1cc(O)c2c(c1O)C(=O)c1c(O)cc(C)c(O)c1C2=O"
  CLASS LABEL: "no (0)"
- COMPOUND: "O=C(OCc1ccc(Oc2ccc(Cl)cc2Cl)c([N+](=O)[O-])c1)c1ccc([N+](=O)[O-])o1"
  CLASS LABEL: "no (0)"
- COMPOUND: "O=C(N/N=C\\c1ccc([N+](=O)[O-])o1)c1ccc(O)cc1"
  CLASS LABEL: "no (0)"
- COMPOUND: "Cc1cc(C)nc(NS(=O)(=O)c2ccc(N)cc2)n1"
  CLASS LABEL: "no (0)"
- COMPOUND: "CCCCCc1ccc(S(=O)(=O)Nc2ncc(C)cc2Br)cc1"
  CLASS LABEL: "no (0)"
- COMPOUND: "O=C(NNc1c(Cl)cccc1Cl)c1ccc([N+](=O)[O-])o1"
  CLASS LABEL: "no (0)"
- COMPOUND: "C[N+]1(C)C2CC[C@H]1CC(OC(=O)C(O)c1ccccc1)C2 (stereo partly specified)"
  CLASS LABEL: "no (0)"
- COMPOUND: "O=c1ccc2ccc(O)c(O)c2o1"
  CLASS LABEL: "no (0)"

Q. What did this assay record as the result for O=C1c2ccccc2C(=O)c2c(O)c(O)cc(O)c21 ?
A. yes (1)

Q. Hey, what did the test say about O=C(SCc1c(Cl)cccc1Cl)c1ccc([N+](=O)[O-])o1 ?
A. yes (1)

Q. Recorded call for COP(=S)(OC)Oc1cc(Cl)c(Cl)cc1Cl ?
A. yes (1)

----------
test: chemical genetic growth profiling, strain panel (AID 1159580);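 further: tested at 20 µM; growth read once vehicle control cultures reached saturation at 30 °C; 1 = growth at the plate median or of vehicle wells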; conditions: S. cerevisiae deletion strains, growth OD, locus YHR142W, strain chs7
Out of some 5,500 compounds screened, about 2,000 (36%) were called active. Another 18% or so got no clear call; they are omitted. Cut-off read from the data, not from the text of the source: active = normalized growth mostly below about 0.91 (no sharp cut-off); inconclusive = no clear call, values can overlap the other calls; inactive = mostly above about 0.92. The list shows a part of the results.
Thanks in advance; please answer with one of these: Yes for active, No for inactive

Here's what some known entries look like.
- COMPOUND: "O=c1ccc2ccc(O)c(O)c2o1"
  CLASS LABEL: "No"
- COMPOUND: "CC1(C)S[C@@H]2[C@H](NC(=O)COc3ccccc3)C(=O)N2[C@H]1C(=O)O"
  CLASS LABEL: "No"
- COMPOUND: "Cc1cc(C)nc(NS(=O)(=O)c2ccc(N)cc2)n1"
  CLASS LABEL: "No"

Q. Fill in: this test's call for O=C1c2ccc(O)c(O)c2C(=O)c2c(O)ccc(O)c21 is ___
A. Yes

Q. Recorded test outcome, item O=c1cc(-c2ccc(O)cc2)oc2cc(O[C@@H]3O[C@H](CO)[C@@H](O)[C@H](O)[C@H]3O[C@@H]3OC[C@](O)(CO)[C@H]3O)cc(O)c12
A. No

Q. Entry COP(=S)(OC)SCn1nnc2ccccc2c1=O : call = ?
A. No

----------
assay: chemical genetic growth profiling, strain panel (AID 1159580);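 further: tested at 20 µM; growth read once vehicle control cultures reached saturation at 30 °C; 1 = growth at the plate median or of vehicle wells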; conditions: S. cerevisiae deletion strains, growth OD, locus YGR252W, strain gcn5, hits give low values
Out of some 5,500 compounds screened, about 2,000 (36%) were called active. Roughly 18% stayed inconclusive and do not appear here. This is one part of the list.
Values of normalized growth strictly less than 1 map to Fulfilled, and values of at least 1 map to Not fulfilled.

- TEST SMILES: "COc1cc(O)c(C(=O)c2ccccc2)c(OC)c1"
  CLASS LABEL: "Fulfilled"

Okay, now this molecule:
Q. Find out if reported normalized growth for COC(=O)C1=CO[C@@H](O[C@@H]2O[C@H](CO)[C@@H](O)[C@H](O)[C@H]2O)[C@@H]2[C@@H](C)[C@@H](O)C[C@H]12 is less than 1
A. Not fulfilled

----------
assay: chemical genetic growth profiling, strain panel (AID 1159580);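 further: tested at 20 µM; growth read once vehicle control cultures reached saturation at 30 °C; 1 = growth at the plate median or of vehicle wells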; conditions: S. cerevisiae deletion strains, growth OD, locus YDR335W, strain msn5, hits give low values
About 2,000 (36%) of roughly 5,500 compounds were called active. Inconclusive results (about 18%) are left out. The list shows a part of the results.
OBSERVABLE: normalized growth
// return just the number, without any unit appended

- COMPOUND: "COc1cc(OC)c(C(C)=O)c(O)c1C"
  OBSERVABLE: "normalized growth"
  MEASURED NUMBER: 0.95
- COMPOUND: "COc1ccc2ccc(=O)oc2c1CC=C(C)C"
  OBSERVABLE: "normalized growth"
  MEASURED NUMBER: 0.95
- COMPOUND: "CCS(=O)(=O)CCn1c([N+](=O)[O-])cnc1C"
  OBSERVABLE: "normalized growth"
  MEASURED NUMBER: 0.993
- COMPOUND: "Cn1c([N+](=O)[O-])cnc1COC(N)=O"
  OBSERVABLE: "normalized growth"
  MEASURED NUMBER: 1.01
- COMPOUND: "CSCCC(NC=O)C(=O)NC(CC(C)C)C(=O)NC(Cc1ccccc1)C(=O)O (configuration not stated)"
  OBSERVABLE: "normalized growth"
  MEASURED NUMBER: 1
- COMPOUND: "CC1=C(C(=O)O)N2C(=O)[C@@H](NC(=O)[C@H](N)C3=CCC=CC3)C2SC1 (some centres not stated)"
  OBSERVABLE: "normalized growth"
  MEASURED NUMBER: 1.02
- COMPOUND: "CC1(C)S[C@@H]2[C@H](NC(=O)COc3ccccc3)C(=O)N2[C@H]1C(=O)O"
  OBSERVABLE: "normalized growth"
  MEASURED NUMBER: 0.986
- COMPOUND: "COc1cc(O)c(C(C)=O)c(OC)c1"
  OBSERVABLE: "normalized growth"
  MEASURED NUMBER: 1.01
- COMPOUND: "Cn1cnc([N+](=O)[O-])c1Sc1ncnc2nc[nH]c12"
  OBSERVABLE: "normalized growth"
  MEASURED NUMBER: 1.01
- COMPOUND: "CNC(=O)CSP(=S)(OC)OC"
  OBSERVABLE: "normalized growth"
  MEASURED NUMBER: 1.01

Q. State, in one line, measured normalized growth of COC(=O)C1=CO[C@@H](O[C@@H]2O[C@H](CO)[C@@H](O)[C@H](O)[C@H]2O)[C@@H]2[C@@H](C)[C@@H](O)C[C@H]12
A. 0.995

Q. Hello, please tell me recorded normalized growth for this one: CC(C)=CCC/C(C)=C/COc1ccc2ccc(=O)oc2c1
A. 1
